The entries below are paired with their reported protein stability index.
- Assay Summary: protein stability index of a GFP-peptide fusion (yeast GPS) (PSI 1-4); higher = more stable; sorted into four equal gates, so the index is relative within each strain
- Assay Setup: pdr5∆
Reply: number alone, nothing else.

Provide measured protein stability index value, entry: QKQWDDIAFVLNNLPYK [YCS4]
3.09

Provide measured protein stability index value, entry: NRKVRAGRGFTLAEVKA [RPL13A]
2.97

Provide measured protein stability index value, entry: FFLQRKLRSELGYKDTS [BRR2]
1.53

###

The entries below are paired with their reported protein stability index.
- Assay Summary: protein stability index of a GFP-peptide fusion (yeast GPS) (PSI 1-4); higher = more stable; sorted into four equal gates, so the index is relative within each strain
- Assay Setup: pdr5∆
Reply: number alone, nothing else.

Below, 2 sequences whose answers are already recorded.
{"Biosequence": "EQFKMVSMITDHNALPQ [POP1]", "Numeric Readout": 3.05}
{"Biosequence": "NTFKVLSKFFFFIFVFN [COB]", "Numeric Readout": 1.41}

Provide measured protein stability index value, entry: FKKLTKDIFRYMQRTVE [RPB2]
1.4

###

- Assay Summary: protein stability index of a GFP-peptide fusion (yeast GPS) (PSI 1-4); higher = more stable; sorted into four equal gates, so the index is relative within each strain
- Assay Setup: ubr1∆
Experimental Readout: protein stability index

{"Biosequence": "IPLGKNVVVKWQGKPVF [RIP1]", "protein stability index": 2.96}

Provide measured protein stability index value, entry: EQPCVDIISGKIHSILP [YJR042W/NUP85]
3

Provide measured protein stability index value, entry: FTNPSIVKVFHGAFMDI [RRP6]
1.38

Provide measured protein stability index value, entry: SINKNNKEMHTDLGKDI [SSN2]
3.48

###

The entries below are paired with their reported protein stability index.
- Assay Summary: protein stability index of a GFP-peptide fusion (yeast GPS) (PSI 1-4); higher = more stable; sorted into four equal gates, so the index is relative within each strain
- Assay Setup: doa10∆
Reply: number alone, nothing else.

Below, 5 sequences whose answers are already recorded.
{"Biosequence": "PSKSQTNFKEEITDASL [YML103C/NUP188]", "protein stability index": 2.93}
{"Biosequence": "LSSGESNEIKVTNDLDT [SIR4]", "protein stability index": 2.94}
{"Biosequence": "INSTKNGKDNNNESNKN [MED2]", "protein stability index": 3.08}
{"Biosequence": "DEDIITIFKYLTDKDAF [CDC53]", "protein stability index": 2.91}
{"Biosequence": "GKRQVLIRPSSKVIIKF [RPS22A]", "protein stability index": 3.04}

Provide measured protein stability index value, entry: YEAPRHGHLGFLPRKRA [RPL3]
2.99

Provide measured protein stability index value, entry: FTKKPVTPNDKIPEREE [SIR4]
3.05

Provide measured protein stability index value, entry: SSLNGTNAKIPQFDSTQ [SSN3]
3.06

Provide measured protein stability index value, entry: DVDMEDRNLTEFDSTDT [RRI1]
2.93

Provide measured protein stability index value, entry: ARVTGGMKVKADRDESS [RPS14B]
2.5

Provide measured protein stability index value, entry: FFRNKLKYHDFLRKATA [RPL16B]
2.02

Provide measured protein stability index value, entry: KFQLQNQLEDFILELEH [YIL149C/MLP2]
2.72

Provide measured protein stability index value, entry: TTIDSLNAELESKLIPQ [SMC3]
3.06

Provide measured protein stability index value, entry: ESDNYRLLPNGSNKAQI [YML031W/NDC1]
3.08
